Entry source: patent US20250320312A1

- target desc: BSA (UniProt P02769)
- Sequence (P02769 25-607 limits assumed): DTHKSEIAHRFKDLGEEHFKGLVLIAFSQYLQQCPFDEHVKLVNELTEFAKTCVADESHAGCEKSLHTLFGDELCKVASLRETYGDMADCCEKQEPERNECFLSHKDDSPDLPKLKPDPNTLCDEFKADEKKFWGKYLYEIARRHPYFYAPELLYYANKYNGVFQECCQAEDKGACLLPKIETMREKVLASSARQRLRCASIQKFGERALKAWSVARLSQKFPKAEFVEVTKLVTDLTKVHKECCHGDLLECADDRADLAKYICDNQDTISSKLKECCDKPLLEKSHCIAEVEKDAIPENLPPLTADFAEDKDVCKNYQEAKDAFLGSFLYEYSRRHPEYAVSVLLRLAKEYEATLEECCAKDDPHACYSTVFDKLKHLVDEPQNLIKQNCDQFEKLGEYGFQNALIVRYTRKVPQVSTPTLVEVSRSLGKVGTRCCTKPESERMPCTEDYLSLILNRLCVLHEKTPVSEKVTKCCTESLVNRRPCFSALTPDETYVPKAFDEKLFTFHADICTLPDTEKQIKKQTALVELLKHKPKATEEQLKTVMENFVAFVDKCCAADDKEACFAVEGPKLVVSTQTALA
- experiment: scFv ELISA
Catalogue of OD450 readings, one per entry.
Just the number please, in OD450, no unit attached.

Check out these entries, answers already filled in.
PcOxP_DB03_E03 (scFv, V domains shown, scFv in periplasmic extract) VH: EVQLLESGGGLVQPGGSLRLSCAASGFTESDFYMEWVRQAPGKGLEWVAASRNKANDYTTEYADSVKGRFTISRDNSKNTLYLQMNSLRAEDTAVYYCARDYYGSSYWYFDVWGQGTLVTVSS VL: DIVMTQSPDSLAVSLGERATINCKSSQSLLYSKNNVNYLAWYQQKPGQPPKLLIYGESNRYIGVPDRFSGSGSGTDFTLTISSLQAEDVAVYYCAQFYEYPLTFGGGTKVEIK
0.05
PcOxP_DB01_H01 (scFv, V domains shown, scFv in periplasmic extract) VH: EVQLLESGGGLVQPGGSLRLSCAASGFTFSSYYMEWVRQAPGKGLEWVAASRNKANLYTTEYADSVKGRFTISRDNSKNTLYLQMNSLRAEDTAVYYCARDYYGSSTWYFDVWGQGTLVTVSS VL: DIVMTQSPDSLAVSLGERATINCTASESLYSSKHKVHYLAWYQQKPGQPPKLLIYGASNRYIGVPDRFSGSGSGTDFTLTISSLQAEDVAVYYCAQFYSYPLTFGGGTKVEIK
0.09
PcOxP_DB01_F03 (scFv, V domains shown, scFv in periplasmic extract) VH: EVQLLESGGGLVQPGGSLRLSCAASGFTFSDSYMEWVRQAPGKGLEWVAASRNKYNDYTTEYADSVKGRFTISRDNSKNTLYLQMNSLRAEDTAVYYCARDYYGSSYWYFDVWGQGTLVTVSS VL: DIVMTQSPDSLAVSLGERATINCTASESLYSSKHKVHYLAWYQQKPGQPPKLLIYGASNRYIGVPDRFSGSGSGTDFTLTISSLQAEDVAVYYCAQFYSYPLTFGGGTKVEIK
0.08

Inquiry: Using the record for PcOxP_DB02_H05 (scFv, V domains shown, scFv in periplasmic extract) VH: EVQLLESGGGLVQPGGSLRLSCAASGFTFSDFYMEWVRQAPGKGLEWVAASRNKANDYTTEYADSVKGRFTISRDNSKNTLYLQMNSLRAEDTAVYYCARDYYGSSYWYFDPWGQGTLVTVSS VL: DIVMTQSPDSLAVSLGERATINCTASESLYSSKHKVHYLAWYQQKPGQPPKLLIYGASNRYLGVPDRFSGSGSGTDFTLTISSLQAEDVAVYYCAQFYSYPLTFGGGTKVEIK , report its OD450.
Reply text: 0.09

Inquiry: Dear colleague, I am looking for the recorded OD450 of the following binder: PcOxP_DB02_F12 (scFv, V domains shown, scFv in periplasmic extract) VH: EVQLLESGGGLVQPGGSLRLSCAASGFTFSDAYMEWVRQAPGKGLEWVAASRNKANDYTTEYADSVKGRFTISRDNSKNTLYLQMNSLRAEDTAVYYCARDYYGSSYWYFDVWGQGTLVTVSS VL: DIQMTQSPSSLSASVGDRVTITCEASESLYSSKHKVHYLAWYQQKPGKAPKLLIYGASNRYPGVPSRFSGSGSGTDFTLTISSLQPEDFATYYCAQFYEYPLTFGGGTKVEIK
Reply text: 0.07
